The reported numbers originate from patent US10221173B2.

Target: Estrogen Receptor (ERα) in MCF-7 cells (Homo sapiens (Human))
Sequence (P03372 whole entry): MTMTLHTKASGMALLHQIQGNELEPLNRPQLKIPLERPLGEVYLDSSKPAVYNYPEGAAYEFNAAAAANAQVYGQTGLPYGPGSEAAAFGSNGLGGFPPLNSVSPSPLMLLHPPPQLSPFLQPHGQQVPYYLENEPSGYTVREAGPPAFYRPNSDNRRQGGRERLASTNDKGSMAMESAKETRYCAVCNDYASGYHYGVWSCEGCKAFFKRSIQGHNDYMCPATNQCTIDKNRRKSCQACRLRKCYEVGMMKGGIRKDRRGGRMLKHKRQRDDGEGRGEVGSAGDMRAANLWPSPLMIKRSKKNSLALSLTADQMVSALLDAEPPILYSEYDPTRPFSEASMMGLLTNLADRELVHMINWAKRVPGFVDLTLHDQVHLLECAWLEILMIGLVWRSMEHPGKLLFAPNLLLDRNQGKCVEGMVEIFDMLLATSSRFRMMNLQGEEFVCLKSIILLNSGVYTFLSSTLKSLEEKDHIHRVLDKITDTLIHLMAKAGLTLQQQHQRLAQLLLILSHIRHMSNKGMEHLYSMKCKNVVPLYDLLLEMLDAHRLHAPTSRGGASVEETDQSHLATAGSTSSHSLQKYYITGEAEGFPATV
Test: Western blotting assay, ER down-regulation in MCF-7
Format: cell-based
Settings: MCF-7, 100 nM compound, 48 h, vs 100 nM fulvestrant
# label = Satisfied if MCF7 Western % ER deg vs Fv >= 90% else Not satisfied

### Prompt # bool: MCF7 Western % ER deg vs Fv of Cc1c(OCCN(C)CCCF)ncc(F)c1[C@@H]1c2[nH]c3ccccc3c2C[C@@H](C)N1C[C@H](C)C(=O)O >= 90%
### Response Satisfied

### Prompt # bool: MCF7 Western % ER deg vs Fv of C[C@@H]1Cc2c([nH]c3ccccc23)[C@@H](c2cc(OCCNCCCF)ccn2)N1CC(F)(F)F >= 90%
### Response Satisfied

### Prompt # bool: MCF7 Western % ER deg vs Fv of C[C@@H]1Cc2c([nH]c3cccc(F)c23)[C@@H](c2c(F)ccc(OCCNCCCF)c2F)N1CC(F)(F)CO >= 90%
### Response Satisfied

### Prompt # bool: MCF7 Western % ER deg vs Fv of COc1ccc(OCCNCCCF)cc1[C@@H]1c2[nH]c3ccccc3c2C[C@@H](C)N1CC1(F)COC1 >= 90%
### Response Not satisfied

### Prompt # bool: MCF7 Western % ER deg vs Fv of C[C@@H]1Cc2c([nH]c3ccccc23)[C@@H](c2c(F)ccc(OCCNCCCF)c2F)N1CC1(F)COC1 >= 90%
### Response Not satisfied

### Prompt # bool: MCF7 Western % ER deg vs Fv of Cc1c(OCCNCCCF)ccc(F)c1[C@@H]1c2[nH]c3ccc(F)cc3c2C[C@@H](C)N1C[C@H](C)C(=O)O >= 90%
### Response Satisfied

### Prompt # bool: MCF7 Western % ER deg vs Fv of COc1ccc(OCCNCCCF)c(F)c1[C@@H]1c2[nH]c3ccccc3c2C[C@@H](C)N1CC(F)(F)F >= 90%
### Response Satisfied

###

Target: Estrogen Receptor (ERα) in MCF-7 cells (Homo sapiens (Human))
Test: Western blotting assay, ER down-regulation in MCF-7
Type: cell-based
Conditions: MCF-7, 100 nM compound, 48 h, vs 100 nM fulvestrant
Field: MCF7 Western % ER deg vs Fv. Provide a value for each of the compounds that follow.
Express the result in % but write the number alone.

### Prompt What value of MCF7 Western % ER deg vs Fv on Estrogen Receptor (ERα) in MCF-7 cells (Homo sapiens (Human)) does C[C@@H]1Cc2c([nH]c3ccccc23)[C@@H](c2cccc(OCCNCCCF)c2)N1CC(F)(F)F have?
### Response 89

### Prompt What value of MCF7 Western % ER deg vs Fv on Estrogen Receptor (ERα) in MCF-7 cells (Homo sapiens (Human)) does C[C@@H]1Cc2c([nH]c3ccccc23)[C@@H](c2cc(OCCNCCCF)ccc2C#N)N1CC(F)(F)F have?
### Response 95

### Prompt What value of MCF7 Western % ER deg vs Fv on Estrogen Receptor (ERα) in MCF-7 cells (Homo sapiens (Human)) does C[C@@H](CN1[C@H](c2c(F)cnc(OCCNCCCF)c2Cl)c2[nH]c3ccccc3c2C[C@H]1C(F)(F)F)C(=O)O have?
### Response 85

### Prompt What value of MCF7 Western % ER deg vs Fv on Estrogen Receptor (ERα) in MCF-7 cells (Homo sapiens (Human)) does Cc1c(OCCN(C)CCCF)ncc(F)c1[C@@H]1c2[nH]c3ccccc3c2C[C@@H](C)N1C[C@@H](C)C(=O)O have?
### Response 93

### Prompt What value of MCF7 Western % ER deg vs Fv on Estrogen Receptor (ERα) in MCF-7 cells (Homo sapiens (Human)) does Cc1ccc2[nH]c3c(c2c1)C[C@@H](C)N(CC(F)(F)CO)[C@@H]3c1c(F)ccc(OCCNCCCF)c1F have?
### Response 94

### Prompt What value of MCF7 Western % ER deg vs Fv on Estrogen Receptor (ERα) in MCF-7 cells (Homo sapiens (Human)) does Cc1c(OCCNCCCF)ncc(F)c1[C@@H]1c2[nH]c3ccccc3c2C[C@@H](C)N1CC(F)(F)CO have?
### Response 91

### Prompt What value of MCF7 Western % ER deg vs Fv on Estrogen Receptor (ERα) in MCF-7 cells (Homo sapiens (Human)) does C[C@@H]1Cc2c([nH]c3ccccc23)[C@@H](c2c(F)ccc(NCCNCCCF)c2F)N1CC(F)(F)F have?
### Response 90

###

Experiment: Thermodynamic solubility (shake-flask)
Assay type: physicochemical
Settings: aqueous phosphate buffer, 25 °C, pH 7.4, aqueous buffer, thermodynamic from solid, phosphate buffer pH 7.4, 24 hours
Field: solubility at 24 h. Provide a value for each of the molecules that follow.
Express the result in µM but write the number alone.

### Prompt I am curious: what solubility at 24 h value has been reported for C[C@@H]1Cc2c([nH]c3ccccc23)[C@@H](c2cc(OCCNCCCF)ncc2F)N1CC(F)(F)F [Example 39] ?
### Response 259

### Prompt I am curious: what solubility at 24 h value has been reported for Cc1ccc(OCCNCCCF)nc1[C@@H]1c2[nH]c3ccccc3c2C[C@@H](C)N1CC(F)(F)F [Example 105] ?
### Response 136

### Prompt I am curious: what solubility at 24 h value has been reported for Cc1c(OCCNCCCF)ccc(F)c1[C@@H]1c2[nH]c3ccccc3c2C[C@@H](C)N1CCC#N [Example 87] ?
### Response 71

### Prompt I am curious: what solubility at 24 h value has been reported for C[C@@H]1Cc2c([nH]c3ccccc23)[C@@H](c2cccc(N(C)CCNCCCF)c2)N1CC1(F)COC1 [Example 3] ?
### Response 712

### Prompt I am curious: what solubility at 24 h value has been reported for COc1ccc(OCCNCCCF)c(F)c1[C@@H]1c2[nH]c3ccccc3c2C[C@@H](C)N1CC(F)(F)CO [Example 81] ?
### Response 736

### Prompt I am curious: what solubility at 24 h value has been reported for C[C@@H]1Cc2c([nH]c3ccccc23)[C@@H](c2c(F)ccc(OCCN(C)CCCF)c2C(F)F)N1C[C@H](C)C(=O)O [Example 148] ?
### Response 788

### Prompt I am curious: what solubility at 24 h value has been reported for COc1ccc(OCCNCCCF)cc1[C@@H]1c2[nH]c3ccccc3c2C[C@@H](C)N1CC(F)(F)CO [Example 8] ?
### Response 617

### Prompt I am curious: what solubility at 24 h value has been reported for Cc1c(OCCNCCCF)ncc(F)c1[C@@H]1c2[nH]c3ccccc3c2C[C@@H](C)N1CC(F)(F)CO [Example 110] ?
### Response 939

### Prompt I am curious: what solubility at 24 h value has been reported for C[C@@H]1Cc2c([nH]c3ccccc23)[C@@H](c2cccc(OCCNCCCF)n2)N1CC(F)(F)F [Example 34] ?
### Response 151

### Prompt I am curious: what solubility at 24 h value has been reported for C[C@@H]1Cc2c([nH]c3ccccc23)[C@@H](c2cc(F)cc(OCCNCCCF)c2)N1CC(F)(F)F [Example 73] ?
### Response 7

### Prompt I am curious: what solubility at 24 h value has been reported for C[C@@H]1Cc2c([nH]c3ccccc23)[C@@H](c2nccc(NCCNCCCF)c2F)N1CC(F)(F)F [Example 94] ?
### Response 698

### Prompt I am curious: what solubility at 24 h value has been reported for C[C@@H]1Cc2c([nH]c3ccccc23)[C@@H](c2cccc(OCCNCCCF)c2C(F)F)N1CC(F)(F)CO [Example 68] ?
### Response 56.6

### Prompt I am curious: what solubility at 24 h value has been reported for COc1ncc(OCCNCCCF)cc1[C@@H]1c2[nH]c3ccccc3c2C[C@@H](C)N1CC(F)(F)F [Example 36] ?
### Response 183

###

Test: Thermodynamic solubility (shake-flask)
Format: physicochemical
Settings: aqueous phosphate buffer, 25 °C, pH 7.4, aqueous buffer, thermodynamic from solid, phosphate buffer pH 7.4, 24 hours
attribute measured: log10(solubility at 24 h) (log10 of the value in µM)
# log10 transformed; quantity=solubility at 24 h; unit=µM

### Prompt I am curious: what log10(solubility at 24 h) value has been reported for Cc1c([C@@H]2c3[nH]c4ccccc4c3C[C@@H](C)N2CC(F)(F)CO)ccnc1OCCNCCCF ?
### Response 2.82

### Prompt I am curious: what log10(solubility at 24 h) value has been reported for C[C@@H]1Cc2c([nH]c3ccc(F)cc23)[C@@H](c2c(F)cnc(OCCNCCCF)c2F)N1CC(F)(F)CO ?
### Response 2.66

### Prompt I am curious: what log10(solubility at 24 h) value has been reported for C[C@@H]1Cc2c([nH]c3ccccc23)[C@@H](c2nccc(OCCNCCCF)c2Cl)N1CC(F)(F)F ?
### Response -0.30

### Prompt I am curious: what log10(solubility at 24 h) value has been reported for Cc1c(OCCNCCCF)ccc(F)c1[C@@H]1c2[nH]c3ccccc3c2C[C@@H](C)N1CC(F)(F)C(=O)O ?
### Response 2.05

### Prompt I am curious: what log10(solubility at 24 h) value has been reported for COc1ncc(NCCNCCCF)cc1[C@@H]1c2[nH]c3ccccc3c2C[C@@H](C)N1CC(F)(F)F ?
### Response 2.38

### Prompt I am curious: what log10(solubility at 24 h) value has been reported for Cc1ccc(OCCNCCCF)c(C)c1[C@@H]1c2[nH]c3ccccc3c2C[C@@H](C)N1CC(F)(F)F ?
### Response 0.59
